system: Gastric cancer tumor cells; assay: MTT proliferation inhibition, gastric cancer cells; assay type: cell-based, human; parameters: concentration or dose not given beside the values; conditions: 48 h
Where no end group is shown, it is not given here.
Returns Criterion met if the recorded rate of growth inhibition is greater than or equal to 60%, and Criterion not met otherwise.

Examples from the recorded data:
mPEG2-NHS10k-Arg-Gly-Ala-Asp-Arg-Ala-Gly-Gly-Gly-Gly-Arg-Gly-Asp ({mPEG2‑NHS 10 kDa}-RGADRAGGGGRGD) [mPEG2-NHS10k-HM-1]: Criterion not met
mPEG2-NHS40k-Arg-Gly-Ala-Asp-Arg-Ala-Gly-Gly-Gly-Gly-Arg-Gly-Asp ({mPEG2‑NHS 40 kDa}-RGADRAGGGGRGD) [mPEG2-NHS40k-HM-1]: Criterion not met
mPEG-bALD40k-Arg-Gly-Ala-Asp-Arg-Ala-Gly-Gly-Gly-Gly-Arg-Gly-Asp ({mPEG‑bALD 40 kDa}-RGADRAGGGGRGD) [mPEG-bALD40k-HM-1]: Criterion met
mPEG-SC40k-Arg-Gly-Ala-Asp-Arg-Ala-Gly-Gly-Gly-Gly-Arg-Gly-Asp ({mPEG‑SC 40 kDa}-RGADRAGGGGRGD) [mPEG-SC40k-HM-1]: Criterion not met

Now examine the next entry.
Given the entry mPEG-ALD10k-Arg-Gly-Ala-Asp-Arg-Ala-Gly-Gly-Gly-Gly-Arg-Gly-Asp ({mPEG‑ALD 10 kDa}-RGADRAGGGGRGD) [mPEG-ALD10k-HM-1] , answer whether its rate of growth inhibition meets or surpasses 60%.
Criterion met
